measurement notes: soluble on expression in E. coli; label from the status in PepcDB or PDB records
measured endpoint: soluble on expression in E. coli

Worked cases, answers included:
seq_text=MALALSLSACSPPLRRTRRAGFRTSCSIFANPAQRAKRKLLELISEEDRGLRTQKDPKKRDEIVNAIESMTVIGRSSITTDDSLSATWRLLWTTEKEQLFIIEKAGLFGTTAGDVLQVIDVNKRILNNVITFPPDGVFFVRSDIDIASPQRVNFRFNSAVLRGKNWELPLPPFGKGWFENVYMDGEIRVAKDIRGDYLIVDRAPYNWTESFV val=soluble
seq_text=GFRKMAFPSGKVEGCMVQVTCGTTTLNGLWLDDTVYCPRHVICTAEDMLNPNYEDLLIRKSNHSFLVQAGNVQLRVIGHSMQNCLLRLKVDTSNPKTPKYKFVRIQPGQTFSVLACYNGSPSGVYQCAMRPNHTIKGSFLNGSCGSVGFNIDYDCVSFCYMHHMELPTGVHAGTDLEGKFYGPFVDRQTAQAAGTDTTITLNVLAWLYAAVINGDRWFLNRFTTTLNDFNLVAMKYNYEPLTQDHVDILGPLSAQTGIAVLDMCAALKELLQNGMNGRTILGSTILEDEFTPFDVVRQCSGVTHHHHHH val=soluble
seq_text=GSHMSEWKARRFWASVGIHKEEGGWAVLLDERPLRTPGKQPLRLPTEALALAIAEEWQAVQEVIDPNAMPLTRSANSAIEKVAPQFDAVAAMLGDYGGTDLLSYRADAPEALVRAQAEGWDPLIDWAATELRAPLRITHGVIPVPQDPVVLLKLRAEVASLDPFGLTALHDLVTLPGSLILGLAVIRGRIDAPTAHALSRIDEEFQAERWGRDEEAEAQAASRLAAMRDSERFWHLTRG val=soluble
seq_text=MRRVSINSFLEPNSPNVPNRVTIPDGDLRRNSDDTATDRISLTNQLGKSAYSTTTEDSIDSETSETRMDSSRTSEISGNVKEDPVSENQYVLENSESSESIVVDLEMPGMTLRSKASPRKRYMSKKEKDLNDEKKNFKDLVLTIGQNQIQDPDEDFQITKEAIDLLQSESDKILLEMFTSSNAIATAGERDILTPTDIQTARHIQMIMKKYKK val="not soluble"
seq_text=AELTCTDVSGLTAEEIQMRESLQYTDHSPYPDKTCANCQLYVPAESPDQCGGCQLIKGPIHPNGYCTSWVQKAT val=soluble

Okay, now this sequence:
Problem: Record request: soluble on expression in E. coli value, item "MSLVSEAHIYLQKTNAIQQSSADLISILAGSGGNRDLLLLRDHLLSIDMMKLLDKDLHLREHFSDRRRDLLSRLWSKDAPDERFQRYYLSRIEVTYDDYAQVLSITAQAYSPEMARAIAQMMVTEGEKYMNALDHKTAHDQVSYIEQQVSALGVRMVAARKAVLAYQDAHGLVSPGNAVESISAIASRLDAELSDLMTKRAALAGYLTPAAPDIVQLDSQIAAVKSQLQAERQRVAAKRGGGLNAVAEEQGRLEAEAALADDMYKTALVALETARVESTRKIKSVAVLQSANLPVYPLEPRRIYNILEGHHHHHH"
Solution: not soluble
